Each recorded value in this set is attributed to PubChem BioAssay (NCI).

Reported growth values for a set of molecules
system: OVCAR-5 ovarian; assay: NCI-60 one-dose screen, 48 h (100 = growth as untreated, 0 = no growth, -100 = all killed); settings: 10 µM unless noted
This is part of a sample that, as a whole, favours compounds with a hit. Of some 83,000 tested, about 20% had one in any assay.
Numeric only. Scale: %

In the examples that follow, each entry is paired with its recorded growth.
{"molecule": "C=CC[PH+](c1ccccc1)c1ccccc1.C=CC[PH+](c1ccccc1)c1ccccc1.[Pt+2].[S-]c1nc2ccccc2[nH]1.[S-]c1nc2ccccc2[nH]1", "output unit": "%", "growth": -3.98}
{"molecule": "CO/N=C1\\CC[C@]2(C)[C@H]3CC[C@]4(C)C(=O)CC[C@H]4[C@@H]3C[C@@H]3SC(N)=N[C@@]32C1", "output unit": "%", "growth": 105}
{"molecule": "CO[C@@H]([CH2][Hg][O]C(=O)c1ccccc1)[C@@H]([CH2][Hg][O]C(=O)c1ccccc1)OC", "output unit": "%", "growth": 111}

Task: Would you mind telling me what growth value was observed for O=S(OO)c1cc(Cl)c(O)c(Cl)c1 (stereo not drawn) ?
Output: 107

Task: Would you mind telling me what growth value was observed for Cc1ccccc1-n1c(/C=C\c2ccccn2)nc2ccccc2c1=O ?
Output: 106

Task: Would you mind telling me what growth value was observed for Nc1c(Cl)c(Cl)nc(C(=O)O)c1Cl ?
Output: 111

Task: Would you mind telling me what growth value was observed for O=S(=O)(c1ccc(O)cc1)c1ccccc1O ?
Output: 98.9

Task: Would you mind telling me what growth value was observed for COc1ccc2c(c1)c(-c1nc(-c3c[nH]c4ncccc34)cs1)cn2CCCCN1CCOCC1 ?
Output: 58.3

Task: Would you mind telling me what growth value was observed for CNC(=O)Oc1ccc(Cl)cc1SSc1cc(Cl)ccc1OC(=O)NC ?
Output: 121

Task: Would you mind telling me what growth value was observed for O=[N+]([O-])c1cc(Br)c(O)c(Br)c1 ?
Output: 115

Task: Would you mind telling me what growth value was observed for CN1C2CCC1[C@@H](COC(=O)c1ccccc1)[C@@H](O)C2 (stereo partly drawn) ?
Output: 106

Task: Would you mind telling me what growth value was observed for c1ccc2c(c1)O[As](O[As]1Oc3ccccc3O1)O2 ?
Output: 40.6

Task: Would you mind telling me what growth value was observed for N#CCCc1ccccc1 ?
Output: 98

Task: Would you mind telling me what growth value was observed for COc1ccc2c(c1)c(-c1nc(-c3cn(C)c4ncccc34)cs1)cn2CCCCN1CCOCC1 ?
Output: 56.9

Task: Would you mind telling me what growth value was observed for C[C@H](O)CCC(=O)c1ccoc1 ?
Output: 106

Task: Would you mind telling me what growth value was observed for C[C@]12CCC3[C@@H](C[C@@H]4SC(Nc5ccccc5)=N[C@@]45CC(=O)CC[C@]35C)[C@@H]1CCC2=O (stereo partly drawn) ?
Output: 31.2

Task: Would you mind telling me what growth value was observed for N#CCc1ccc(CC#N)cc1 ?
Output: 104
